- measurementDescription: protein stability index of a GFP-peptide fusion (yeast GPS) (PSI 1-4); higher = more stable; sorted into four equal gates, so the index is relative within each strain
- measurementParameters: pdr5∆
Collected protein stability index values appear next to each entry.
property: protein stability index

HLHDAVFVNTGLQNVRK [SWP82]; 2.84
SLYTSREPRVVSALQML [PUP1]; 2.86
IYNNIVSNIEGILDEIM [RGR1]; 2.09
VTVEQLRSIYHQFHDIL [NSL1]; 1.9
NKSISDEITEDMFEMSD [SSN2]; 3.1
LRLSNFFTIDHFIQKLH [SIR2]; 2.2
NNSAPNNTNNANSSITP [YJL041W/NSP1]; 2.97
HAGTAIGIMASDGIVLA [PRE9]; 3.02
FIMVKGCIPGNRKRIVT [RPL3]; 1.48
LNLDSEQTVEYMVSRAI [RPN3]; 3.22
KHGAVHLSTYLKVYKVG [RPL21A]; 1.69
RLKQVFNRALDQSISKL [NNF1]; 2.11
LKHVLQLIFRQQTGLVD [SNU114]; 1.58
NCPHSDSTQLLETILEE [SSN2]; 3.1
PNFFLTLISENWWHSEF [BRR2]; 2.27

---

- measurementDescription: protein stability index of a GFP-peptide fusion (yeast GPS) (PSI 1-4); higher = more stable; sorted into four equal gates, so the index is relative within each strain
- measurementParameters: san1∆
protein stability index values for the sequences below.
property: protein stability index

ATPPLKRFKDMEYLSGG [SMC1]; 2.99
LPFMQNAGPNSNIPNLL [YDL088C/ASM4]; 2.58
NILWRIADKTTYDKETI [SIR4]; 2.98
NIMSASGGLFGNQQQQL [YGL172W/NUP49]; 3.29
ADVFTDDDLFETLVLSY [YCG1]; 2.85
KIESEDDYILSGESVMD [SRB4]; 3.38
EEGETSRPLKKVKILEQ [SWI3]; 2.86
AAANNNIKPVEQHHINN [GAL11]; 2.72
TEQFCATLNYIDKNHGF [SRB7]; 3.2
VFFDDDPLYDITKVPAL [REC8]; 2.7
SPVRSDSADVPAFSNSN [YMR153W/NUP53]; 3.21
MSLEPTQTVSGTPPMLH [DSN1]; 2.92
VPVANQFINLAGYKKLG [QCR7]; 1.94
TIYNLQHHVTDADKLSF [YML031W/NDC1]; 1.98

---

Quick reference: protein stability index of the listed items.
- measurementDescription: protein stability index of a GFP-peptide fusion (yeast GPS) (PSI 1-4); higher = more stable; sorted into four equal gates, so the index is relative within each strain
- measurementParameters: doa10∆
property: protein stability index

ATNRPDTLDPALLRPGR [RPT4]; 2.91
KLYTFLARRTDAPFNKV [RPL18A]; 1.78
DNGGTILGIAGEDFAVL [PRE7]; 3.46
SGVPRLKEILNVAKNMK [RPO21]; 1.23
KKDIKIGTNDLFQVESA [SIR4]; 2.62
NYIYAGYENGMLAQWDL [RPN14]; 2.92
QIFCVFSGKGVHKLRHY [GRR1]; 2.67
EIYKQLNDRQEEISRLQ [YIL149C/MLP2]; 3.42
TRFKAVVVVGDSNGHVG [RPS2]; 1.87
IALNLASKKFGKICLIL [SSN2]; 2.41
LVTCEGSEEKAFVPKKR [SRP54]; 2.19
NIVNDFTPEEEAAIRRE [SKP1]; 2.28
IDSVEVETNTTVLADEF [RPB3]; 2.96
DNIRYATALQTCAGGRL [SMC2]; 2.31
QTGTRRNSKLLNTKSIQ [MCD1]; 3.29

---

- measurementDescription: protein stability index of a GFP-peptide fusion (yeast GPS) (PSI 1-4); higher = more stable; sorted into four equal gates, so the index is relative within each strain
- measurementParameters: pdr5∆
protein stability index vs 3: at or above is Yes, below is No.

DDTKETVYISSIALLKM [RPN11]; No
LKSPVLSKLCVPVANQF [QCR7]; No
ISLLCKNFKGIEEIEYN [PCI8]; Yes
LMLGSVNLPGGILRRKS [RRP4]; No
NILWRIADKTTYDKETI [SIR4]; Yes
KTVDSSIQPIESNIKMT [SSN2]; No
TYLTQEILILINDPTNK [SIN4]; No
RLSNEMHALKNRSEQNG [RGR1]; Yes
EFLKWTPNVNVLVLHGD [ISW2]; No
GSNNGFGNKPAGSTGFS [YGR119C/NUP57]; No
LSIELEGGKNQAELLQL [YJL039C/NUP192]; Yes
EINSEMCHIVRKFHELN [GRR1]; No
SKNTAVSKVQKRKVLEL [SRP72]; No
DVTPADDLKQKKEELVE [RPO31]; Yes
DYYYEDAGSNQYYVTQH [SWI1]; Yes
TMANILYYPQKPLGTTR [RPB2]; No
SAAINNEDARAIFNNEF [RPN4]; Yes
IESQMRDLILTEYGRKY [PRP8]; No
KTGTKPAAVFTETLKHD [RPL4A]; No
SLYTNTSRKALEEVSLK [RPL3]; No
LSGVSNSMDMVDGMAKV [RGR1]; Yes
QQIPLLCYMAPMTVKLV [POP3]; No
PINLKFLQGESPFSITF [YMR129W/POM152]; No

---

Entries and their protein stability index values follow.
- measurementDescription: protein stability index of a GFP-peptide fusion (yeast GPS) (PSI 1-4); higher = more stable; sorted into four equal gates, so the index is relative within each strain
- measurementParameters: pdr5∆
property: protein stability index

SMDVDDKNSGVKSEVDV [ITC1]; 1.64
SLEALIDLCHDFPHLTP [YCS4]; 2.35
QTGTRRNSKLLNTKSIQ [MCD1]; 3.19
FLNDVIPTTKNLRLLVE [DLS1]; 3.16
TDLNQDSAAIIAATGLN [GRR1]; 1.32
PSENDVFYRMQQLRRAL [RPO31]; 1.94
LRLLLLLIEFPYLPKHY [YJR042W/NUP85]; 1.72
NNMLYPREDKENNRLLF [RPB9]; 3.43
ERDTFSDFTFPEYYSTA [DIS3]; 1.73
EDSSILQSIVNEISRNG [PCI8]; 2.96
PLRDNGLLDESPNRLRV [YML031W/NDC1]; 3.03
NTAPGLGNTVSTQPSFA [YGR119C/NUP57]; 2.96
KGVLLYGPPGTGKTLLA [RPT4]; 2.58
EKDASGKPSFVFGASDK [YOR098C/NUP1]; 2.52
KQERLKENEESLTPTQS [PRP28]; 3.4
DRQLHEISTSKKNNLEF [RPN14]; 3.13
DRRKARKAYFTAPSSER [RPL26B]; 2.72
VSPAFRVQVGDIVTVGQ [RPS11A]; 2.96
IFQAKRNSNPENTVGLI [RPN10]; 3.27
PQDYVLERVKRIMEKSV [YML031W/NDC1]; 2.66
RAGVTIPSIPNPIANHT [SNF5]; 2.61
SVINVSAQRDRRYRKRN [RPS17B]; 3.04
ILYYDVLFITPDIVGHE [BRR2]; 2.49
GTSLKVAPVSEIVNMVP [SIR2]; 2.65
LTCSLYELYINKLTILG [IRR1]; 1.36
SDPQMKVFDTLTRFSHD [RPN1]; 2.84
IHLYMLTFHTLKKANII [YLR018C/POM34]; 1.27
LPSHIISTSDVTRIINS [RPL4A]; 2.66
DSTVVYPLPKFPTTSHE [MED8]; 3.06
AFEELEGSWDRGIPRIS [PRP8]; 3.36
PTTTTGGLFGNSAQNNS [YGR119C/NUP57]; 3.18
ISGNPPLLYNSLCTVWK [SRB5]; 2.41
EEQRSDTKNSKSESPSE [ISW2]; 3.21
KLKEMQKVLNAHRQRAM [SMC4]; 2.14
SMSGRISAKDMGQGLCN [BRR2]; 3.03
KINQERLERRINLTKVT [CSI1]; 1.96
LTNLLSQLNIQLSQDEH [SRP72]; 3.03
PKSTAPIFSFGKQEENG [YOR098C/NUP1]; 2.75
EEREAAASKVKLEEESK [RPC53]; 3.43
ISWCSLSETNGLHKFVK [PRE10]; 2.73
ESLTFNEFQLQWGKYQT [SWI1]; 2.93
IEANVTVKTSDDYVLRI [RPS1A]; 2.9
IDESLFNLLILSLNKRI [YCG1]; 2.25
IMKFQSLSDNDLAVCAT [ECM29]; 2.46
NVPSTKFNAAPEENATE [SNF12]; 3.35
PNLNMKYRKRQLVTREA [FAS2]; 3.13
IDLLWKGKTPKNAAESS [PRP28]; 3.12
ALSQSSLLKTKLKQQSS [RRI1]; 2.51
TVPNINFSGLNGGITNT [YOR098C/NUP1]; 3.35
SLLLKNYLNDMHDSNLQ [SKP1]; 2.48
LLAKRLSERKAEKAEIR [RPS6A]; 3.54
SLIRNNLHAEGWPKLQL [ECM29]; 1.25
EFKSIEIEMKNKLEKLN [SMC4]; 1.51
TKEYLVQNLRSWETKLK [CSN9]; 3.33
IGGSLARIALRHLEKEG [RPS25A]; 2.5
DNEEASVKLDLQDDEDH [BRN1]; 3.45
DEINTAQDKWHLLPAFL [RET1]; 3.31
DTQTFSVLLQQLLTPGS [YGL172W/NUP49]; 1.43
ETAKMIENMTKEKVSNG [FAS2]; 3.28
SPSTSANVPSTATTGKR [RPN4]; 2.2
